Origin of the recorded values: the MegaScale stability set (Tsuboyama et al. 2023)

B1: EHEE_rd3_0053 (parent)
chain: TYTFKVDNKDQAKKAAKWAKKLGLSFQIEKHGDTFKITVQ

Variants of: B1
assay.text: folding stability dG (cDNA display proteolysis); higher = more stable
test.context: PBS, room temperature
Measured folding stability dG accompanies every entry in the list below.
Give the quantity in kcal/mol, number only.

Below, 8 variants whose answers are already recorded.
variant.id: A16S
folding stability dG [kcal/mol]: 1.87
//
variant.id: H31A
folding stability dG [kcal/mol]: 2.41
//
variant.id: W18H
folding stability dG [kcal/mol]: 1.22
//
variant.id: Q11L
folding stability dG [kcal/mol]: 2.33
//
variant.id: N8D
folding stability dG [kcal/mol]: 2.02
//
variant.id: D33T
folding stability dG [kcal/mol]: 2.37
//
variant.id: A19S
folding stability dG [kcal/mol]: 0.85
//
variant.id: F4V
folding stability dG [kcal/mol]: 1.2

From here, focus on the item given below.
Request: Quick one: folding stability dG of `V6Y` ?
Result: 1.92
